target: serotonin transporter (Rattus norvegicus); construct: displace ^3H-paroxetine from male rat cortical membranes; from tissue; host or cells: male rat cortical membranes; experiment: 5-HT transporter affinity: displacement of 3H-paroxetine from male rat cortical membranes; format: binding; details: displacement of 3H-paroxetine; male rat cortical membranes; read-out: 5-HT Transporter Affinity Ki
Sequence (P31652 whole entry): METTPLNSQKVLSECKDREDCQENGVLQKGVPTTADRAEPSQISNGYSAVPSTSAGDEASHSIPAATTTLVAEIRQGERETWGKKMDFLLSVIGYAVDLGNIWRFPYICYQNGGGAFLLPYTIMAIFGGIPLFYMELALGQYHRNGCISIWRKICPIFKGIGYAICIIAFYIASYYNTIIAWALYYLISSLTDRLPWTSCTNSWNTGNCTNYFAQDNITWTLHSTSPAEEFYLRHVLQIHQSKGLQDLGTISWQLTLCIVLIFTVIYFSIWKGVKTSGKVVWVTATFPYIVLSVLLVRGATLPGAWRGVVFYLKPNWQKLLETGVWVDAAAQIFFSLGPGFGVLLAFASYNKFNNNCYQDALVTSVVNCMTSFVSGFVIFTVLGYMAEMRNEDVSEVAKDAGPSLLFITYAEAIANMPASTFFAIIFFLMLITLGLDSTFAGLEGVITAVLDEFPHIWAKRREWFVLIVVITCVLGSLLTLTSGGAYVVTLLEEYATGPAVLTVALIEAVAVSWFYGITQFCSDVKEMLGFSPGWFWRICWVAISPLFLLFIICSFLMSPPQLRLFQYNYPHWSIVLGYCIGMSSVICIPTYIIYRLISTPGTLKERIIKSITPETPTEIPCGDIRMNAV
pKi: −log10 of the molar value.
Outcome Measure: pKi

>>> numeric_result("COc1cccc2c1CC(N(CCCc1c[nH]c3ccc(F)cc13)C1CCCC1)CO2 (stereo not drawn)")
7.16
>>> numeric_result("COc1ccc2[nH]cc(CCCN(C3CCC3)C3COc4c(F)ccc(C(N)=O)c4C3)c2c1 (stereo not drawn)")
6.08
>>> numeric_result("NC(=O)c1ccc(F)c2c1CC(N(CCCc1c[nH]c3ccc(F)cc13)CC1CC1)CO2 (single isomer, unassigned; (-)) [Compound 5a]")
8.39
>>> numeric_result("NC(=O)c1cccc2c1CC(N(CCCc1c[nH]c3ccc(F)cc13)CC1CC1)CO2 (stereo not drawn)")
8.49
>>> numeric_result("NC(=O)c1ccc(F)c2c1CC(N(CCCCn1ccc3cc(F)ccc31)CC1CC1)CO2 (stereo not drawn)")
7.11
>>> numeric_result("NC(=O)c1ccc(F)c2c1OCC(N(CCCc1c[nH]c3ccc(F)cc13)CC1CC1)C2 (stereo not drawn)")
7.38
>>> numeric_result("NC(=O)c1ccc(F)c2c1OCC(NCCCc1c[nH]c3ccc(F)cc13)C2 (stereo not drawn)")
7.85
>>> numeric_result("O=C(NCC1CC1)c1cccc2c1CC(N(CCCc1c[nH]c3c(F)cc(F)cc13)C1CCC1)CO2 (stereo not drawn)")
8.26
>>> numeric_result("COC(=O)c1ccc(F)c2c1CC(N(CCCc1c[nH]c3ccc(F)cc13)C1CCC1)CO2 (stereo not drawn) [Compound 55]")
6.79
>>> numeric_result("CCCN(CCCCc1c[nH]c2ccc(F)cc12)C1COc2c(C(N)=O)ccc(F)c2C1 (stereo not drawn)")
8.00
>>> numeric_result("NC(=O)c1ccc(F)c2c1CC(N(CCCc1c[nH]c3c(Cl)cccc13)CC1CC1)CO2 (stereo not drawn)")
7.21
>>> numeric_result("CCCN(C1COc2cccc(OC)c2C1)[C@H]1CC[C@@H](c2c[nH]c3ccc(F)cc32)CC1 (relative stereo)")
6.89
